test system: GRK4; conditions: concentration: 1 μM, replicates: in singlicate; n = 1;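 further: KINOMEscan kinase panel screen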
Observable: %Inh (%)

{"Molecule": "Clc1ccc(-c2cc(-c3c[nH]nc3-c3ccccn3)ccn2)cc1 [GW681251]", "Observable": "%Inh", "Meas Value": 0}
{"Molecule": "Cn1ccc2ncnc(Nc3ccc(Oc4cccc(Cl)c4)c(Cl)c3)c21", "Observable": "%Inh", "Meas Value": 7}
{"Molecule": "CC(C)(C)OC(=O)NC1CCCN(c2cc(-c3ccc4c(N)n[nH]c4c3)nc(N)n2)C1 (centres unmarked) [GSK2286096]", "Observable": "%Inh", "Meas Value": 0}
{"Molecule": "Cl.c1ccc(Cn2ncc3cc(Nc4ncnc5ccccc45)ccc32)cc1 [GW273749]", "Observable": "%Inh", "Meas Value": 0}
{"Molecule": "Cl.O=S(=O)(c1cccc(F)c1)c1ccc(Nc2ncnc3cc(Br)sc23)cc1Cl [GSK306886]", "Observable": "%Inh", "Meas Value": 0}
{"Molecule": "CN1CCC(n2cnc(-c3ccc(F)cc3)c2-c2ccnc(NC3CCNCC3)n2)CC1 [SB-229482]", "Observable": "%Inh", "Meas Value": 26}
{"Molecule": "CS(=O)(=O)CCNCc1ccc(-c2ccc3ncnc(Nc4ccc(OCc5ccccc5)c(Cl)c4)c3c2)o1.Cl [GW574783]", "Observable": "%Inh", "Meas Value": 0}
{"Molecule": "CNc1nccc(-c2c(-c3ccc(F)cc3)ncn2CCCN2CCOCC2)n1 [SB-222516]", "Observable": "%Inh", "Meas Value": 0}
{"Molecule": "Nc1nccc2scc(-c3ccc4c(c3)CCN4C(=O)Cc3cc(F)ccc3F)c12 [GSK2587663]", "Observable": "%Inh", "Meas Value": 0}
{"Molecule": "COC(=O)c1c(-c2ccccc2)c2cc(Cl)ccc2c(=O)n1Cc1ccc(S(C)(=O)=O)cc1", "Observable": "%Inh", "Meas Value": 12}
{"Molecule": "O=C(Nc1n[nH]c2nc(-c3ccco3)c(Br)cc12)c1ccc(CN2CCCC2)cc1.O=C(O)[C@H](O)[C@@H](O)C(=O)O [SB-742352]", "Observable": "%Inh", "Meas Value": 20}
{"Molecule": "OCCOCCn1ccc2ncnc(Nc3ccc(Oc4cccc(Cl)c4)c(Cl)c3)c21", "Observable": "%Inh", "Meas Value": 0}
{"Molecule": "Fc1cccc(COc2ccc(Nc3ncnc4sc(-c5ccc[nH]5)cc34)cc2Cl)c1 [GW707818]", "Observable": "%Inh", "Meas Value": 0}
{"Molecule": "C[C@H]1CC[C@@H](C(=O)Nc2ccccc2)CN1c1cc(-c2ccc3c(N)n[nH]c3c2)nc(N)n1 [GSK2283293]", "Observable": "%Inh", "Meas Value": 25}
{"Molecule": "Clc1cc(Nc2ncnc3cc[nH]c23)ccc1OCc1ccccn1", "Observable": "%Inh", "Meas Value": 25}
{"Molecule": "Cl.Fc1ccccc1COc1ccc(Nc2ncnc3ccc(-c4nnc(C(F)(F)F)o4)cc23)cc1Cl [GW424170]", "Observable": "%Inh", "Meas Value": 0}
{"Molecule": "O=C(Nc1ccccc1F)NC1CCN(c2ccnc(Nc3ccc(F)cc3)n2)C1 (centres unmarked) [GSK1379722]", "Observable": "%Inh", "Meas Value": 0}
